# TARGET_ENTITY: Mitogen-activated protein kinase 14 (Homo sapiens)
# PROCEDURE_TEXT: Inhibition of p38alpha (unknown origin) at 30 uM by microfluidic mobility shift assay relative to control
Class definitions on inhibition: bin A (below 3%), bin B (3% to below 9%), bin C (9% or more)

Consider c1nc(N2CCCC23CCNCC3)c2nc[nH]c2n1 . To which inhibition class does it belong?
bin B

Which inhibition category applies to O=S(=O)(c1cccc2cnccc12)N1CCCC2(CCNCC2)C1 here?
bin A

Hey, which category is OC1CCNC2(CCN(c3ncnc4[nH]cnc34)CC2)C1 (racemic) in, do you know?
bin B

Lab note: which band did NC1(Cc2ccccc2)CCN(S(=O)(=O)c2cccc3cnccc23)CC1 land in?
bin C

Field: class (inhibition) — entry: O=S(=O)(c1cccc2cnccc12)N1CCC2(CCCN2)CC1
bin A

Hello team, could you let me know which band the following molecule falls into: O=C(O)C1CCC2(CCN(c3ncnc4[nH]cnc34)CC2)NC1 (racemic)
bin C

GET /class?item= c1nc(N2CCCC3(CCCNC3)C2)c2nc[nH]c2n1 (configuration not stated)
bin B

# bin label for O=S(=O)(c1cccc2cnccc12)N1CCCC12CCNCC2
bin A

Classify this molecule: c1nc(N2CCC3(CCCCO3)CC2)c2nc[nH]c2n1
bin A

Input O=S(=O)(c1cccc2cnccc12)N1CCC2(CC1)CC(O)CCN2 (racemic) ; output its category
bin A

Category of c1ccc(CC2CCC3(CCN(c4ncnc5[nH]cnc45)CC3)NC2)cc1 (racemic) :
bin B

Which inhibition band matches CN(C)C(=O)C1CCC2(CCN(c3ncnc4[nH]cnc34)CC2)NC1 (racemic) ?
bin C

Note: place this molecule into its band. Item: CNC(=O)C1CCC2(CCN(c3ncnc4[nH]cnc34)CC2)NC1 (racemic)
bin C

Where would c1nc(N2CCCC3(CCNCC3)C2)c2nc[nH]c2n1 land among the classes by reported inhibition?
bin A

Bin this entry: O=S(=O)(c1cccc2cnccc12)N1CCC2(CCCCN2)CC1
bin B

Into which bin does this molecule go? c1ccc(C2CCC3(CCN(c4ncnc5[nH]cnc45)CC3)NC2)cc1 (configuration not stated)
bin C

Lab note: which band did O=S(=O)(c1cccc2cnccc12)N1CCC2(CCC(O)CN2)CC1 (racemic) land in?
bin A
